Hello, the source for this data is ChEMBL document CHEMBL5291721, in case you need it.

Observed AC50 for Equilibrative nucleoside transporter 1 (Homo sapiens, UniProt Q99808), reported per entry below.

Examples from the recorded data:
>  <molecule>
CN1CCN(CC/C=C2/c3ccccc3Sc3ccc(S(=O)(=O)N(C)C)cc32)CC1

>  <AC50>
> 30 µM

$$$$
>  <molecule>
CCCCc1ncc(/C=C(\Cc2cccs2)C(=O)O)n1Cc1ccc(C(=O)O)cc1

>  <AC50>
> 10 µM

$$$$
>  <molecule>
C[C@](N)(Cc1ccc(O)c(O)c1)C(=O)O

>  <AC50>
> 10 µM

$$$$
>  <molecule>
CCOC(=O)OC(C)OC1=C(C(=O)Nc2ccccn2)N(C)S(=O)(=O)c2ccccc21 (centres undefined)

>  <AC50>
> 30 µM

$$$$
>  <molecule>
C[C@H](N)[C@H](O)c1cccc(O)c1

>  <AC50>
> 10 µM

$$$$
>  <molecule>
C=CCC1(CC(C)C)C(=O)NC(=O)NC1=O

>  <AC50>
> 10 µM

$$$$
>  <molecule>
C#C[C@]1(O)CC[C@H]2[C@@H]3[C@H](C)CC4=C(CCC(=O)C4)[C@H]3CC[C@@]21C

>  <AC50>
> 30 µM

$$$$
>  <molecule>
C[C@]12CC[C@H]3[C@@H](CCC4=CC(=O)CC[C@@]43C)[C@@H]1CC[C@@H]2O

>  <AC50>
> 10 µM

$$$$
>  <molecule>
CC(C[N+](C)(C)C)OC(N)=O (centres undefined)

>  <AC50>
> 10 µM

$$$$
>  <molecule>
CC(C)Cn1cnc2c(N)nc3ccccc3c21

>  <AC50>
> 30 µM

$$$$

CN1C(=O)CCS(=O)(=O)C1c1ccc(Cl)cc1 (centres undefined) tested on Equilibrative nucleoside transporter 1 (Homo sapiens, UniProt Q99808) gave AC50: > 10 µM

AC50 for Equilibrative nucleoside transporter 1 (Homo sapiens, UniProt Q99808) with input CN1C(=O)C(O)N=C(c2ccccc2)c2cc(Cl)ccc21 (centres undefined) equals > 30 µM

Entry "Cc1cn([C@H]2C[C@H](N=[N+]=[N-])[C@@H](CO)O2)c(=O)[nH]c1=O" , tested on Equilibrative nucleoside transporter 1 (Homo sapiens, UniProt Q99808), has a reported AC50 of > 30 µM

Response field AC50 (Equilibrative nucleoside transporter 1 (Homo sapiens, UniProt Q99808)) for item CN(C)CCC(c1ccc(Cl)cc1)c1ccccn1 (centres undefined) : > 30 µM

The molecule C=CCC1(C(C)CC)C(=O)NC(=O)NC1=O (centres undefined) , when measured on Equilibrative nucleoside transporter 1 (Homo sapiens, UniProt Q99808), yielded AC50 of > 10 µM

Assay Equilibrative nucleoside transporter 1 (Homo sapiens, UniProt Q99808), sample "CC=CC(=O)N(CC)c1ccccc1C" , AC50 read: > 10 µM

Measured on Equilibrative nucleoside transporter 1 (Homo sapiens, UniProt Q99808), Fc1ccc(C(c2ccccc2)(c2ccccc2F)n2ccnc2)cc1 (centres undefined) has a documented AC50 of > 10 µM

Hey, Equilibrative nucleoside transporter 1 (Homo sapiens, UniProt Q99808) data for COc1cc2nc(N(C)CCCNC(=O)C3CCCO3)nc(N)c2cc1OC (centres undefined) : AC50 came out at > 30 µM

----------
Biological target: Progesterone receptor (Homo sapiens, UniProt P06401); further: assay procedure not described here
Sequence (P06401 whole entry): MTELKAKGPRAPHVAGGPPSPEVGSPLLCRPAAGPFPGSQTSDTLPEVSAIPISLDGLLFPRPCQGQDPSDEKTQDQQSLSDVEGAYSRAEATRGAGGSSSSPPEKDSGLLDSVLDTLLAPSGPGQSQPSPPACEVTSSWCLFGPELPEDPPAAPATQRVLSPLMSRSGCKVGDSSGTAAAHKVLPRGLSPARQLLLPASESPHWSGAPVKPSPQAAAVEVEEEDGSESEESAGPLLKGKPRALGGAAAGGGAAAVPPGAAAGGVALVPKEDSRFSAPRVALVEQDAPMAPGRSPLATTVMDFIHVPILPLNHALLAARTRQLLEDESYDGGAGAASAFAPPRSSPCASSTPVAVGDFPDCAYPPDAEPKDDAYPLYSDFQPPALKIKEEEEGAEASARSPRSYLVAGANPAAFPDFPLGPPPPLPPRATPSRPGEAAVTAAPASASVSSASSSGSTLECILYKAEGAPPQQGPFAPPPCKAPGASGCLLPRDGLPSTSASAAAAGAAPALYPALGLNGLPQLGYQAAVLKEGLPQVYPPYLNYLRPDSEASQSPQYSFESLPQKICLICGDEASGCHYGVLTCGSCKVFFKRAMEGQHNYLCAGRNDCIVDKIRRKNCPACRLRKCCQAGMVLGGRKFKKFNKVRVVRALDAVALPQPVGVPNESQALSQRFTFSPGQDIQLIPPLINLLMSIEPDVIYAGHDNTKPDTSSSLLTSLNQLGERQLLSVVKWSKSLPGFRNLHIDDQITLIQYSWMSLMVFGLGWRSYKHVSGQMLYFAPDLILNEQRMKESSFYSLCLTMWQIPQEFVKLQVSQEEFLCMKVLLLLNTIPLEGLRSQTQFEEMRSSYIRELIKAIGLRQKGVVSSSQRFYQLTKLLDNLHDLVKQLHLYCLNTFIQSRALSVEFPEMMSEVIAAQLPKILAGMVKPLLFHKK
Format: functional
parameter: AC50

>  <compound>
NCC(CC(=O)O)c1ccc(Cl)cc1 (centres undefined) [BACLOFEN]

>  <recorded.measurement>
> 30 µM

$$$$
>  <compound>
CC(C)(C)NCC(O)COc1cccc2c1CCC(=O)N2 (centres undefined) [CARTEOLOL]

>  <recorded.measurement>
> 10 µM

$$$$
>  <compound>
CCCCN1C[C@H](O)[C@@H](O)[C@H](O)[C@H]1CO

>  <recorded.measurement>
> 30 µM

$$$$
>  <compound>
CCCC(=O)O[C@]1(C(=O)CO)CC[C@H]2[C@@H]3CCC4=CC(=O)CC[C@]4(C)[C@H]3[C@@H](O)C[C@@]21C [HYDROCORTISONE BUTYRATE]

>  <recorded.measurement>
0.042 µM

$$$$
>  <compound>
CNC(C)CCC=C(C)C (centres undefined) [ISOMETHEPTENE]

>  <recorded.measurement>
> 30 µM

$$$$
>  <compound>
OC(CNCC(O)C1CCc2cc(F)ccc2O1)C1CCc2cc(F)ccc2O1 (centres undefined) [NEBIVOLOL]

>  <recorded.measurement>
> 30 µM

$$$$
>  <compound>
CC[C@@H](C(N)=O)N1CCCC1=O

>  <recorded.measurement>
> 30 µM

$$$$
>  <compound>
C=CCc1ccccc1OCC(O)CNC(C)C (centres undefined) [ALPRENOLOL]

>  <recorded.measurement>
> 30 µM

$$$$
>  <compound>
C=CCC1(C(C)CC)C(=O)NC(=O)NC1=O (centres undefined) [TALBUTAL]

>  <recorded.measurement>
> 10 µM

$$$$
>  <compound>
CC(C)C[C@H]1C(=O)N2CCC[C@H]2[C@]2(O)O[C@](NC(=O)[C@@H]3C=C4c5cccc6[nH]c(Br)c(c56)C[C@H]4N(C)C3)(C(C)C)C(=O)N12 [BROMOCRIPTINE]

>  <recorded.measurement>
> 30 µM

$$$$

// sample "CCC(CC)(CC(=O)Nc1cccc(/C=C/c2nc(C3CCC3)cs2)c1)C(=O)O" , its AC50 was > 30 µM

Reported AC50 for CC(=O)O[C@H]1C[C@@H]2CC[C@@H]3[C@H](CC[C@@]4(C)[C@H]3C[C@H]([N+]3(C)CCCCC3)[C@@H]4OC(C)=O)[C@@]2(C)C[C@@H]1N1CCCCC1 [VECURONIUM] was > 30 µM

For reference, reported AC50 for O=C1C(O)=C([C@H]2CC[C@H](c3ccc(Cl)cc3)CC2)C(=O)c2ccccc21 [ATOVAQUONE] stands at > 30 µM

In plain terms, Clc1ccc(CCCOCCCN2CCCCC2)cc1 [PITOLISANT] has a documented AC50 of > 30 µM

The compound CC(C[N+](C)(C)C)OC(N)=O (centres undefined) [BETHANECHOL] showed AC50 equal to > 10 µM

response.value for NCC[C@H](O)C(=O)N[C@@H]1C[C@H](N)[C@@H](O[C@H]2O[C@H](CN)[C@@H](O)[C@H](O)[C@H]2O)[C@H](O)[C@H]1O[C@H]1O[C@H](CO)[C@@H](O)[C@H](N)[C@H]1O [AMIKACIN] (field: AC50) = > 10 µM

The compound C[C@]1(O)CC[C@H]2[C@@H]3CCC4=CC(=O)CC[C@]4(C)[C@@]3(F)[C@@H](O)C[C@@]21C [FLUOXYMESTERONE] showed AC50 equal to 0.074 µM

----------
Target: UniProtKB P08588
Sequence (P08588 whole entry): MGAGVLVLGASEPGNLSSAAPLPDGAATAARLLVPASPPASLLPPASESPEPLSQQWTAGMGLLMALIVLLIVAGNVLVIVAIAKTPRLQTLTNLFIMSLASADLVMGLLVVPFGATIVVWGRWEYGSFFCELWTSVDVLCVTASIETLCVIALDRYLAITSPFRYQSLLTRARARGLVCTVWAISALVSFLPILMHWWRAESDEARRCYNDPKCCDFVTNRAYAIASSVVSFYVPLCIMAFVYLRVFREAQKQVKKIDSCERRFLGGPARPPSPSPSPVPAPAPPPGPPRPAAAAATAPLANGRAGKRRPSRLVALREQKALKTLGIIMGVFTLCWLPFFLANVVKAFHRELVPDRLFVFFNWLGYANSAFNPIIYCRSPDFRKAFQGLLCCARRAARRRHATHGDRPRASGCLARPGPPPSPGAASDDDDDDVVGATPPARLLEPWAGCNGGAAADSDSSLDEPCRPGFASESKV
Format: functional
Each item that follows carries a reported AC50.

>  <compound>
Clc1ccc2nsnc2c1NC1=NCCN1 [TIZANIDINE]

>  <AC50>
> 10 µM

$$$$
>  <compound>
Cn1c(=O)c2c(ncn2CC2OCCO2)n(C)c1=O [DOXOFYLLINE]

>  <AC50>
> 30 µM

$$$$
>  <compound>
CCCC(C)C1(CC)C(=O)NC(=O)NC1=O (stereo unspecified) [PENTOBARBITAL]

>  <AC50>
> 10 µM

$$$$
>  <compound>
COc1ccc(CCN(C)CCCC(C#N)(c2cc(OC)c(OC)c(OC)c2)C(C)C)cc1OC (stereo unspecified) [GALLOPAMIL]

>  <AC50>
> 30 µM

$$$$
>  <compound>
CN1C(=O)OC(C)(C)C1=O [TRIMETHADIONE]

>  <AC50>
> 10 µM

$$$$
>  <compound>
COc1ccccc1N1CCN(CC(O)COc2cccc3ccccc23)CC1 (stereo unspecified) [NAFTOPIDIL]

>  <AC50>
1.1 µM

$$$$

AC50 value, target or system UniProtKB P08588, for COc1ccc(C(=O)Nc2ccccc2CCC2CCCCN2C)cc1 (stereo unspecified) [ENCAINIDE] : > 10 µM

I looked up COc1ccc(CCNCC(O)COc2cccc(C)c2)cc1OC (stereo unspecified) [BEVANTOLOL] and its AC50 for UniProtKB P08588 was 0.026 µM

The compound O=C(O)C[C@H](O)C[C@H](O)/C=C/c1c(C2CC2)nc2ccccc2c1-c1ccc(F)cc1 [PITAVASTATIN] , tested on UniProtKB P08588, showed AC50 of > 30 µM

The compound "CC(C)(C)C(=O)Oc1ccc(S(=O)(=O)Nc2ccccc2C(=O)NCC(=O)O)cc1" , when measured on UniProtKB P08588, yielded AC50 of > 30 µM

Bench note, UniProtKB P08588: entry Cc1ccc(-n2nccn2)c(C(=O)N2CCN(c3nc4cc(Cl)ccc4o3)CC[C@H]2C)c1 [SUVOREXANT] , its AC50 = > 30 µM

Entry C[C@H]1COc2c(C3(N)CC3)c(F)cc3c(=O)c(C(=O)O)cn1c23 [PAZUFLOXACIN] : AC50 on UniProtKB P08588 = > 10 µM

Item CCCSc1ccc2nc(NC(=O)OC)[nH]c2c1 [ALBENDAZOLE] was tested on UniProtKB P08588; the reported AC50 is > 10 µM

Summary line: CN1C(=O)C(O)N=C(c2ccccc2Cl)c2cc(Cl)ccc21 (stereo unspecified) [LORMETAZEPAM] , UniProtKB P08588, reported AC50 = > 30 µM

Case CCCc1nc(C(C)(C)O)c(C(=O)OCc2oc(=O)oc2C)n1Cc1ccc(-c2ccccc2-c2nnn[nH]2)cc1 [OLMESARTAN MEDOXOMIL] , UniProtKB P08588, AC50 recorded as > 10 µM

Entry COc1cccc(C2(O)CCCCC2CN(C)C)c1 (stereo unspecified) [TRAMADOL] : AC50 on UniProtKB P08588 = > 10 µM
